Data credit: patent US7772260B2

Tested on: SCG neurons
Assay: cells
Type: cell-based, Sprague Dawley rats
Conditions: Rattus norvegicus, Neuron; Taxol™ (50 ng/mL), viability 48 hours later, MTS; read-out: IC(50), protection of SCG neurons from Taxol killing
log10 of IC50 listing for selected molecules.
In our notation, the value equals log10 of IC50 in µM.

Some solved entries appear below for comparison.
CC(C)(C)c1ccc(-c2cn3nc(S(N)(=O)=O)sc3n2)cc1	0.70
COc1ccc2ccc(-c3cn4nc(S(N)(=O)=O)sc4n3)cc2c1Br	0.85
NS(=O)(=O)c1nn2cc(-c3ccc(-c4c(F)c(F)c(F)c(F)c4F)cc3)nc2s1	0.30

The molecule `Cc1ccc(-c2cn3nc(S(N)(=O)=O)sc3n2)c(C)c1` on SCG neurons: log10 of IC50 was 0.70

The molecule `NS(=O)(=O)c1nn2cc(-c3ccc(Oc4ccc([N+](=O)[O-])cc4)cc3)nc2s1` on SCG neurons: log10 of IC50 was 0.30

The molecule `CNS(=O)(=O)c1nn2cc(-c3ccccc3)nc2s1` on SCG neurons: log10 of IC50 was 1.00

The molecule `N#Cc1cccc(-c2cn3nc(S(N)(=O)=O)sc3n2)c1` on SCG neurons: log10 of IC50 was 0.48

---

System: SCG neurons
Assay: cells
Type: cell-based, Sprague Dawley rats
Details: Rattus norvegicus, Neuron; Taxol™ (50 ng/mL), viability 48 hours later, MTS; read-out: IC(50), protection of SCG neurons from Taxol killing
Structures can show the parent of a compound that is named as a salt.
pIC50 listing for selected compounds.
// pIC50: -log10(molar conc.)

Some solved entries appear below for comparison.
NS(=O)(=O)c1nn2cc(-c3ccc(O)c(O)c3)nc2s1 [Compound 22]	4.60
COc1cccc(-c2nc3sc(S(N)(=O)=O)nn3c2Br)c1Br [Compound 129, hydrobromide]	5.15

The reported value for NS(=O)(=O)c1nn2cc(-c3ccc4ccccc4c3)nc2s1 [Compound 62] in terms of pIC50 is 4.82

The reported value for CN(C)S(=O)(=O)c1nn2cc(-c3c(F)c(F)c(F)c(F)c3F)nc2s1 [Compound 140] in terms of pIC50 is 5.30

---

Molecular target: CA II (Homo sapiens)
Assay: CA II inhibition
Format: biochemical
Settings: read-out: IC(50), CA II inhibition
readout.name: log10 IC50 (log10 of the value in µM)
In our notation, the value equals log10 of IC50 in µM.

Some solved entries appear below for comparison.
NS(=O)(=O)c1nn2cc(-c3ccc4c(c3)OCCCO4)nc2s1	0.73
NS(=O)(=O)c1nn2cc(-c3ccc(Br)cc3)nc2s1	-0.70
COc1ccc(OC)c(-c2cn3nc(S(N)(=O)=O)sc3n2)c1	-0.47
CS(=O)(=O)c1ccc(-c2cn3nc(S(N)(=O)=O)sc3n2)cc1	-0.05

From here, focus on the item given below.
The compound `CCN(CC)S(=O)(=O)c1ccc(-c2cn3nc(S(N)(=O)=O)sc3n2)cc1` on CA II (Homo sapiens): log10 IC50 was -0.78

---

Molecular target: CA II (Homo sapiens, UniProt P00918)
Assay: CA II inhibition
Type: biochemical
Settings: read-out: CAII(50) / CAII IC(50)
readout.name: IC50 (nM)
Numeric answer only, unit nM assumed.

The compound CNS(=O)(=O)c1nn2cc(-c3ccccc3)nc2s1 [Compound 137] on CA II (Homo sapiens, UniProt P00918): IC50 was 2060

---

IC50 listing for selected molecules.
System: SCG neurons
Assay: cells
Assay type: cell-based, Sprague Dawley rats
Details: Rattus norvegicus, Neuron; Taxol™ (50 ng/mL), viability 48 hours later, MTS; read-out: IC(50), protection of SCG neurons from Taxol killing
Where a name gives a salt, the structure may show the parent alone.
Numeric answer only, unit µM assumed.

NS(=O)(=O)c1nn2cc(-c3ccc(Br)cc3)nc2s1 [Compound 14]	5
Cc1c(-c2ccccc2)nc2sc(S(N)(=O)=O)nn12 [Compound 65]	15

The reported value for CCCCCc1ccc(-c2cn3nc(S(N)(=O)=O)sc3n2)cc1 [Compound 46] in terms of IC50 is 7

The reported value for NS(=O)(=O)c1nn2cc(-c3ccc([N+](=O)[O-])cc3)nc2s1 [Compound 153] in terms of IC50 is 5

The reported value for NS(=O)(=O)c1nn2cc(-c3ccc(C(F)(F)F)cc3)nc2s1 [Compound 52] in terms of IC50 is 3

The reported value for NS(=O)(=O)c1nn2cc(-c3cnccn3)nc2s1 [Compound 108] in terms of IC50 is 5

The reported value for COc1ccc(OC)c(-c2cn3nc(S(N)(=O)=O)sc3n2)c1 [Compound 18] in terms of IC50 is 20

The reported value for CC(=O)N[C@@H](C)c1ccc(-c2cn3nc(S(N)(=O)=O)sc3n2)cc1 [Compound 58] in terms of IC50 is 30

The reported value for N#Cc1ccc(-c2cn3nc(S(N)(=O)=O)sc3n2)cc1 [Compound 42] in terms of IC50 is 3

The reported value for NS(=O)(=O)c1nn2cc(-c3ccc(F)cc3)nc2s1 [Compound 4] in terms of IC50 is 5

The reported value for NS(=O)(=O)c1nn2c(Br)c(-c3ccc4ccccc4c3)nc2s1 [Compound 130, hydrobromide] in terms of IC50 is 2

The reported value for NS(=O)(=O)c1nn2cc(-c3c(F)c(F)c(SCc4ccccc4)c(F)c3F)nc2s1 [Compound 8] in terms of IC50 is 5

The reported value for NS(=O)(=O)c1nn2c(Br)c(-c3ccccn3)nc2s1 [Compound 125, hydrobromide] in terms of IC50 is 3

The reported value for NS(=O)(=O)c1nn2c(Br)c(-c3ccc(Br)cc3)nc2s1 [Compound 128, hydrobromide] in terms of IC50 is 2

The reported value for CN(C)S(=O)(=O)c1nn2cc(-c3c(F)c(F)c(N=[N+]=[N-])c(F)c3F)nc2s1 [Compound 152] in terms of IC50 is 2

---

IC50 listing for selected compounds.
System: SCG neurons
Assay: cells
Type: cell-based, Sprague Dawley rats
Conditions: Rattus norvegicus, Neuron; Taxol™ (50 ng/mL), viability 48 hours later, MTS; read-out: IC(50), protection of SCG neurons from Taxol killing
Counter-ions that a name gives are not always drawn.
Numeric answer only, unit µM assumed.

NS(=O)(=O)c1nn2c(Br)c(-c3ccc(-c4ccccc4)cc3)nc2s1 [Compound 132, hydrobromide]	1

The reported value for `NS(=O)(=O)c1nn2cc(-c3ccc(-c4ccccc4)s3)nc2s1` in terms of IC50 is 7

The reported value for `COCCOCCOc1ccc(-c2cn3nc(S(N)(=O)=O)sc3n2)cc1` in terms of IC50 is 10

The reported value for NS(=O)(=O)c1nn2c(Br)c(-c3ccccc3)nc2s1 [Compound 124, hydrobromide] in terms of IC50 is 3

The reported value for `NS(=O)(=O)c1nn2cc(-c3ccccc3)nc2s1` in terms of IC50 is 7

---

Test system: SCG neurons
Assay: cells
Format: cell-based, Sprague Dawley rats
Conditions: Rattus norvegicus, Neuron; Taxol™ (50 ng/mL), viability 48 hours later, MTS; read-out: IC(50), protection of SCG neurons from Taxol killing
pIC50 listing for selected compounds.
// pIC50: -log10(molar conc.)

NS(=O)(=O)c1nn2cc(C(F)(F)F)nc2s1 [Compound 59]	5.00
CN(C)S(=O)(=O)c1nn2cc(-c3ccccc3)nc2s1 [Compound 139]	5.00
NS(=O)(=O)c1nn2cc(-c3ccccn3)nc2s1 [Compound 105]	5.15
COc1ccc(-c2cn3nc(S(N)(=O)=O)sc3n2)cc1 [Compound 17]	5.52
COc1cccc(-c2cn3nc(S(N)(=O)=O)sc3n2)c1 [Compound 16]	5.30

The reported value for Cc1ccc(-c2cn3nc(S(N)(=O)=O)sc3n2)cc1 [Compound 47] in terms of pIC50 is 5.22

The reported value for NS(=O)(=O)c1nn2c(Sc3ccccc3)c(-c3ccc4ccccc4c3)nc2s1 [Compound 135] in terms of pIC50 is 5.15

The reported value for CN(C)S(=O)(=O)c1nn2cc(-c3cccc(O)c3)nc2s1 [Compound 145] in terms of pIC50 is 4.70

The reported value for Nc1ccc(-c2cn3nc(S(N)(=O)=O)sc3n2)cc1 [Compound 70] in terms of pIC50 is 4.66

The reported value for [N-]=[N+]=Nc1c(F)c(F)c(-c2cn3nc(S(N)(=O)=O)sc3n2)c(F)c1F [Compound 151] in terms of pIC50 is 5.70

The reported value for NS(=O)(=O)c1nn2cc(-c3nccs3)nc2s1 [Compound 121] in terms of pIC50 is 5.70

The reported value for CN(C)S(=O)(=O)c1nn2cc(-c3ccc4ccccc4c3)nc2s1 [Compound 147] in terms of pIC50 is 4.77

The reported value for NS(=O)(=O)c1nn2cc(-c3ccc(OCCOCc4ccccc4)cc3)nc2s1 [Compound 31] in terms of pIC50 is 5.00

The reported value for NS(=O)(=O)c1nn2cc(-c3cccc4ccccc34)nc2s1 [Compound 61] in terms of pIC50 is 5.00

The reported value for NS(=O)(=O)c1nn2cc(-c3ccncc3)nc2s1 [Compound 107] in terms of pIC50 is 4.70
